# assaySystem: SSTR-2 (Homo sapiens)
# Sequence (P30874 whole entry): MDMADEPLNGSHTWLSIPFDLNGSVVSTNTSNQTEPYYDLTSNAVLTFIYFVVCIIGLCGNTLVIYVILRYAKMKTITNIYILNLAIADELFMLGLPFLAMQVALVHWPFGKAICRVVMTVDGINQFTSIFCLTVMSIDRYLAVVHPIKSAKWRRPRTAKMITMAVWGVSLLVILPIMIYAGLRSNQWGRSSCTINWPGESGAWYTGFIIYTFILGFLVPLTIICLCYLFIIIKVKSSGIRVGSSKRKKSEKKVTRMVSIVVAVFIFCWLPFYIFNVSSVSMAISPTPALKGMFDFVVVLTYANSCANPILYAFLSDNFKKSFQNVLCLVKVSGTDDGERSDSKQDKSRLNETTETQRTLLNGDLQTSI
pKi: −log10 of the molar value.
reportedProperty: pKi

Worked cases, answers included:
COC[C@H]1OC(OCc2ccc(Cl)cc2)[C@H](NC(=O)CCCN=C(N)N)[C@H](OCc2ccc3ccccc3c2)[C@@H]1O (some centres unmarked) = 6.07
COC[C@H]1O[C@H](OCc2ccc3ccccc3c2)[C@H](NC(=O)CCN)[C@H](OCc2ccc3ccccc3c2)[C@@H]1O = 5.98

[1] COC[C@H]1OC(OCc2ccc3ccccc3c2)[C@H](NC(=O)CCN)[C@H](OCc2ccc3ccccc3c2)[C@@H]1O (some centres unmarked)
[2] COC[C@H]1OC(OCCc2ccccc2)[C@H](NC(=O)CCN)[C@H](OCc2ccc3ccccc3c2)[C@@H]1O (some centres unmarked)
Task: Between the entries labeled 1 and 2 , whose measured pKi is lower? Please identify the chosen entry by its label.
Output: 2
(2: 5.80, 1: 6.07)

---

# assaySystem: Human SST5 somatostatin receptor (SSTR5) (Homo sapiens)
# Construct: expressed in transfected cells; host or cells: HEK-293 EBNA
# methodDescription: Filter plate assay for SST5 receptor, displacement of [125I]SST-14
# Type: binding
# conditions: 10 uM
reportedProperty: SSTR5 Inhib 10 uM % (inhibition of binding of SST-14 to SSTR5) (%)

COC[C@H]1OC(OCc2ccc(Cl)cc2)[C@H](NC(=O)CCNC(=N)N)[C@H](OCc2ccc3ccccc3c2)[C@@H]1O (stereo partly drawn) [Compound 50] = 92
COC[C@H]1OC(OCc2ccc3ccccc3c2)[C@H](NC(=O)CCCN)[C@@H](OCc2cccc(O)c2)[C@@H]1O (stereo partly drawn) [Compound 82] = 87
COC[C@H]1OC(OCc2ccc3ccccc3c2)[C@H](NC(=O)CCNC(=N)N)[C@H](OCc2ccc(-c3ccccc3)cc2)[C@@H]1O (stereo partly drawn) [Compound 36] = 95

---

# assaySystem: Human SST5 somatostatin receptor (SSTR5) (Homo sapiens, UniProt P35346)
# Construct: expressed in transfected cells; host or cells: HEK-293 EBNA
# Sequence (P35346 whole entry): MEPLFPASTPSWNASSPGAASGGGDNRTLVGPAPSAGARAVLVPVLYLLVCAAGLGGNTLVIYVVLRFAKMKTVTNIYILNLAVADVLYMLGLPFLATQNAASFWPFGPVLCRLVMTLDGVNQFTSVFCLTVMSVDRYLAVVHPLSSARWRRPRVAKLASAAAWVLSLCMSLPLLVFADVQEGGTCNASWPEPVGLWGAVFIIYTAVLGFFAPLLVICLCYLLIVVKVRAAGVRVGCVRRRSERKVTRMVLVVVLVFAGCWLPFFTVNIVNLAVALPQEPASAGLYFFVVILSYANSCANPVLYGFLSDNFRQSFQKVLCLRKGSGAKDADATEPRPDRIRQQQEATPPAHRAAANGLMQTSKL
# methodDescription: Filter plate assay for SST5 receptor, displacement of [125I]SST-14
# Type: binding
# conditions: 10 uM
reportedProperty: SSTR5 Inhib 10 uM % (inhibition of binding of SST-14 to SSTR5) (%)

COC[C@H]1OC(OCc2ccccc2)[C@H](NC(=O)CCCN)[C@H](OCc2ccc(Cl)cc2)[C@@H]1O (stereo partly drawn) = 90
CO[C@H]1[C@H](O)[C@@H](COCc2ccc(-c3ccccc3)cc2)OC(OCc2ccc(-c3ccccc3)cc2)[C@@H]1NC(=O)CCCN (stereo partly drawn) = 70
COC[C@H]1OC(OCc2ccc3ccccc3c2)[C@H](NC(=O)CNC(=N)N)[C@@H](OCc2ccc(-c3ccccc3)cc2)[C@@H]1O (stereo partly drawn) = 86

---

# methodDescription: In vivo pharmacokinetic evaluation after i.v. and p.o. administration to rats
# Parameters: species or system rat
# conditions: rat, plasma, po, 25 mg/Kg, Rat 4, PO; calculated using AUC0-480; read-out: BA (oral bioavailability)
reportedProperty: bioavailability (%)
// return numeric value only (unit: %, not printed)

Task: Return reported bioavailability; argument: COC[C@H]1O[C@H](OCCc2ccccc2)[C@H](NC(=O)CCCN)[C@@H](OCc2ccc3ccccc3c2)[C@@H]1O [Compound 1]
Output: 5.38
